Give Kd for every item shown.
Target: T1, fHbp m002415 (Neisseria meningitidis, designed fHbp …, chimera)
T1 chain: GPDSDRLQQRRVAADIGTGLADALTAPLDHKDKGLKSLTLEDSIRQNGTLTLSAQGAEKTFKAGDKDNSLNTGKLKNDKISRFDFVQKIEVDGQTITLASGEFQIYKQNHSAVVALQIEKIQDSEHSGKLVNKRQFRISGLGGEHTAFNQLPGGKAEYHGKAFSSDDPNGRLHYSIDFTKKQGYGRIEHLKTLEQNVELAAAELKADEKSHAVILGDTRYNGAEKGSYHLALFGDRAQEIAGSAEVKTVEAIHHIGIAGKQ
Experiment: BLI
Conditions: both partners purified
Give the quantity in nM, number only.

Record summary for mAb 4B3 (human) (antibody, V domains shown, also called 4B3-2; source: Expi293, purified (MabSelect SuRe, SEC); copies: 2 + 2) VH: QVQLVQSGGGLVKPGGSLRLSCAASGFPFSSYYMSWIRQAPGKGLEWVSDINNSGNVKEYADFVKGRLTISRDNVKNSMYLHMNSLRVEDTAVYYCARNRGRFDVWGQGTLVTVSA VL: EIVMTQSPGTLSLSPGETATLSCRASQMISSPFLAWYQQRRGQAPRLLIYGASTRATDTPDRFRGSGSGTDFILTISRLEPEDFAVYYCQYYDDSPFTFGQGTKLEIK : reported Kd = 3.78

chimeric antibody hJAR5 (antibody, V domains shown, also called hJAR5-2; humanized JAR5; source: Expi293, purified (MabSelect SuRe, SEC); copies: 2 + 2) VH: QVQMQQPGAELVKPGASVKLSCKASGYTFISYWMHWVKQRPGRGLEWIGRIAPDTGIIYYNEKFKNKATLTVDTPSSTAYMQLNSLTSEDSAVYYCARYLKYDGSTYRFDYWGQGTTLTVSS VL: DIVMTQAAPSVPVTPGESVSISCRSSKSLLHSNGNTYLFWFLQRPGQSPQLLIYRMSNLASGVPDRFSGSGSGTSFTLRISRVEAEDVGVYYCMQHLEYPYTFGGGTKLEIK has a reported Kd of 0.664

Looking up mAb 1E6 (human) (antibody, V domains shown, source: Expi293, purified (MabSelect SuRe, SEC); copies: 2 + 2) VH: EVQLVQSGAEVKKPGSSVKVSCKASGGTVIDYPITWVRQAPGQGLEWVGGFVPLFRTSNYGQKFQGRVTITADKSTSTASMELNSLTSEDTAIYYCARGDTAMGPFDYWGQGTLVTVSS VL: SYVLTQPPSLSVAPGKTATLTCGGNNIAGKTVHWYQQRPGQAPVLVISYDSDRPSGIPERFSGSNSANTATLTISRVEAGDEADYYCQVWDRNSDHWVFGGGTKLTVL , I see its Kd listed as 0.831
